protocol_text: NCI Yeast Anticancer Drug Screen. Data for the rad14 strain (AID 159);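 also: 0% = growth of vehicle-treated control cultures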
protocol_conditions: S. cerevisiae rad14 strain growth inhibition; at 100.0 µM; hits give high values
The panel holds about 79,000 compounds, 15% with a hit somewhere; the sample as a whole holds those more often.
compounds and their reported growth inhibition
Record the value in %, omitting the unit from your answer.

Recorded growth inhibition, per entry:
compound	growth inhibition [%]
C[N+](C)([O-])CCCNc1c2ccccc2nc2cccc([N+](=O)[O-])c12	96
O=C1CCC(Cc2ccccc2)CN1 (configuration not stated)	1

Report growth inhibition for COc1cc(NCCCCNCC(C)(C)C)c2ncccc2c1 please.
28

Report growth inhibition for O=C1Nc2ccc(Br)cc2C1=Nc1ccc(Cl)cc1 please.
34

Report growth inhibition for NNc1ccccc1-c1nc2ccccc2[nH]1 please.
49

Report growth inhibition for O=C1C=CC(=Nc2cccc3c2-c2ccccc2C3=O)O1 please.
98

Report growth inhibition for CCOC(=O)/C(=C\c1cccc(C)c1)C(C)=O please.
99
